- Test system: A498 renal
- measurementProtocol: NCI-60 one-dose screen, 48 h (100 = growth as untreated, 0 = no growth, -100 = all killed)
- conditionDetails: 10 µM
This is part of a sample that, as a whole, favours compounds with a hit. Of some 83,000 tested, about 20% had one in any assay.
quantityName: growth (%)
Give just the numeric value; % need not be written.

COc1ccc(C2CC(c3cccs3)=NN2c2ccc(S(N)(=O)=O)cc2)cc1 (stereo not drawn) has a reported growth of 78.5

"CCCCCCCCCCOC(c1ccccc1)c1ccccc1" has a reported growth of 109

C=CCN(CC=C)C(=O)[C@H](CC)[C@@H]1CC[C@@H](C)[C@@H]([C@H](C)[C@@H](O)[C@@H](C)C(=O)[C@H](CC)C2O[C@]3(C=C[C@@H](O)[C@]4(CC[C@@](C)([C@H]5CC[C@](O)(CC)[C@H](C)O5)O4)O3)[C@H](C)C[C@@H]2C)O1 (stereo partly drawn) has a reported growth of -2.03

"COc1cc2cc(Oc3ccc(NC(=O)c4ccc(Cl)c(C(F)(F)F)c4)cc3)c(C)nc2cc1OC" has a reported growth of 24.3

"CCCc1nc(C(C)(C)O)c(C(=O)O)n1Cc1ccc(-c2ccccc2-c2nn[nH]n2)cc1" has a reported growth of 80.2

"Cc1ccc(/C=C2/C(=O)N(C)c3ccc(S(=O)(=O)Nc4ccc(C(C)(C)C)cc4)cc32)s1" has a reported growth of 90.8

"C[N+]1(CCCCC[N+]2(C)CCCC2)CCCC1" has a reported growth of 108

"CC(=O)N[C@H](C(=O)N[C@@H](CCCNC(=N)N)C(=O)N[C@@H](CCCCN)C(=O)N[C@@H](CCCNC(=N)N)C(=O)N[C@]1(C)CCC/C=C\CCC[C@@](C)(C(=O)N[C@@H](CC(C)C)C(=O)N[C@@H](CC(C)C)C(=O)N[C@@H](CCC(N)=O)C(=O)N[C@@H](CCC(=O)O)C(=O)N[C@@H](CCCNC(=N)N)C(=O)N[C@@H](CCC(=O)O)C(=O)N[C@@H](CC(C)C)C(=O)N[C@H](C(=O)N[C@@H](CCC(=O)O)C(N)=O)C(C)C)NC(=O)[C@H](CCCNC(=N)N)NC(=O)[C@H](CC(C)C)NC1=O)C(C)C" has a reported growth of 116

---

- System: SK-MEL-28 melanoma
- measurementProtocol: NCI-60 one-dose screen, 48 h (100 = growth as untreated, 0 = no growth, -100 = all killed)
- conditionDetails: 10 µM
The panel holds about 83,000 compounds, 20% with a hit somewhere; the sample as a whole holds those more often. Calls of active or inactive are those of the source. Rule for the calls: active = growth percent below 10; inactive = the rest.
quantityName: growth

Consider the worked cases shown below.
compound	targetOrTestSystem	growth
Cn1c2ccccc2c2c3[nH][nH]c(=O)c3c3c4ccccc4[nH]c3c21	SK-MEL-28 melanoma	29.3% (inactive)
CC[C@@H](C(=O)[C@H](C)[C@H](O)[C@@H](C)[C@H]1O[C@H]([C@@H](CC)C(=O)N(CC)CC)CC[C@H]1C)C1O[C@]2(C=C[C@@H](O)[C@]3(CC[C@@](C)([C@H]4CC[C@](O)(CC)[C@H](C)O4)O3)O2)[C@H](C)C[C@@H]1C (some centres undefined)	SK-MEL-28 melanoma	27% (inactive)
COc1ccc(Cl)cc1Nc1nc(C(F)(F)F)ccc1C(=O)N/N=C/c1ccc(Cl)cc1	SK-MEL-28 melanoma	51.2% (inactive)

# context switch: different compound, same growth
CC(C)c1ccc(C(C)C(=O)N(CC2=C(C(C)c3ccccn3)c3ccccc3C2)C(C)C)cc1 (centres undefined) has a reported growth of 79.7% (inactive)
